Molecular target: T1, human LIV-1 (human, UniProt Q13433 29-755)
T1 construct: whole, on cells; also called H-LIV1
T1 sequence (looked up): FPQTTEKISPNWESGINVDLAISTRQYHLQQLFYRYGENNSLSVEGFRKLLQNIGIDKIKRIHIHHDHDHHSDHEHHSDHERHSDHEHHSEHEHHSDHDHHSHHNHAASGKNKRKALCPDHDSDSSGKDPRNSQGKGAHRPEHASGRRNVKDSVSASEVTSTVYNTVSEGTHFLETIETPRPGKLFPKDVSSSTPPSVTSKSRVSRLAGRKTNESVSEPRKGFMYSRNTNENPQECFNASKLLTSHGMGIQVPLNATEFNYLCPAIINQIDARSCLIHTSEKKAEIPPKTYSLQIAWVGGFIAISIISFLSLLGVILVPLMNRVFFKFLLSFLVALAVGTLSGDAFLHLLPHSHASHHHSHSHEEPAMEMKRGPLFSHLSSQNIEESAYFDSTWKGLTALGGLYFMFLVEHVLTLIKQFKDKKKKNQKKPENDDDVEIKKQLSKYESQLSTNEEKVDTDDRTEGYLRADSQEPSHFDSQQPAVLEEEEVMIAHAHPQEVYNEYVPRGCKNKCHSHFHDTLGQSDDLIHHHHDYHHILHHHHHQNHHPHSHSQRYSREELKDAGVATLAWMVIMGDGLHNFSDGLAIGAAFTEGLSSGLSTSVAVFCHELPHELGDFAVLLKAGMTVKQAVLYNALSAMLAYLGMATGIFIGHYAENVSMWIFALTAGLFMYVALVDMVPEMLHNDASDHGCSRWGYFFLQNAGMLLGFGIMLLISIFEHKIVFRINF
Test: FACS, HEK293/H_LIV-1 cells
parameter_measured: Top (MFI)
Numbers only, in MFI.

# binder 79F5G5 (antibody, V domains shown, Tested as chimeric antibody) VH: EVQLQQSGAELVRSGASVKLSCTASGFNIKDYYMHWVKQRPEQGLEWIGWIDPENGDTEYAPKFQGKATLTADTSSNTAYLQLSSLTFEDTAVYYCPHGGGLRVFDYWGQGTSLTVSS VL: DVLMTQIPLSLSVSLGDQASISCRSSQSIVHSNGNTYLEWYLQKPGQSPKLLIYKVSNRFSGVPDRFSGSGSGTDFTLKISRVEAEDLGVYYCFQGSHVPWTFGGGTKLEIK ; its Top (MFI) = 17500

Source: patent US20240325555A1
